test: Assessment of In Vivo Pharmacokinetics in Beagle dog; details: male Beagle dog, iv or po at 1 mg/kg or 3 mg/kg
valueType: Dog BAV (% F)

>  <sampleSmiles>
CN1CCN([C@H]2CC[C@H](c3nc(-c4ccc(Oc5ccccc5)cc4F)c4c(N)ncnn43)CC2)CC1

>  <valueType>
Dog BAV

>  <dataValue>
51

$$$$
>  <sampleSmiles>
CN1CCN([C@H]2CC[C@H](n3cc(-c4ccc(Oc5ccccc5)cc4)c4c(N)ncnc43)CC2)CC1

>  <valueType>
Dog BAV

>  <dataValue>
0

$$$$

P = CN1CCN([C@H]2CC[C@H](n3nc(-c4ccc(Oc5ccccc5)cc4F)c4c(N)ncnc43)CC2)CC1
Q = C[C@H]1CN([C@H]2CC[C@H](n3nc(-c4ccc(Oc5ccccc5)cc4F)c4c(N)ncnc43)CC2)CCN1
For the pair P and Q , which member has the lower Dog BAV number? # reply format: chosen label
P

----------
molecular target: N-terminally GST-tagged HCK (75-526) (Homo sapiens (Human), UniProt P08631); assay: HCK Kinase Assay (ProFluor Src-Family Kinase Assay); type: biochemical; conditions: HCK inhibitory activity, 50 μM ATP; read-out: HCK Activity
Sequence (P08631 75-526): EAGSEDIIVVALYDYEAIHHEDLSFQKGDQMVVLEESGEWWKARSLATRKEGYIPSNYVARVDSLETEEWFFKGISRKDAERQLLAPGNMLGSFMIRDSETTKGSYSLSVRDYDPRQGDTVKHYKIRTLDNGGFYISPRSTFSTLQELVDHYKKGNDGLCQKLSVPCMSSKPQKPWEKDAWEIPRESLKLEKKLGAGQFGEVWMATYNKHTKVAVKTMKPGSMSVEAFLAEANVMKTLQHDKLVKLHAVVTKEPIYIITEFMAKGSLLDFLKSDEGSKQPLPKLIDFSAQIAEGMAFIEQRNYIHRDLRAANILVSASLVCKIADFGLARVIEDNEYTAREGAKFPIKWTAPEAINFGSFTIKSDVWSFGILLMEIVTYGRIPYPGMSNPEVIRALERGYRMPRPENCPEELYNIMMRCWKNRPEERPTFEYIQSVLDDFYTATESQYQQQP
pIC50: −log10 of the molar value.
valueType: pIC50

Example molecules with recorded pIC50:
>  <sampleSmiles>
Nc1ncnc2c1c(-c1ccc(Oc3ccccc3)cc1)cn2[C@H]1CC[C@H](NCc2n[nH]c(=O)[nH]2)CC1

>  <pIC50>
> 7.30

$$$$
>  <sampleSmiles>
CN1CCN([C@H]2CC[C@H](n3cc(-c4ccc(C(=O)c5ccccc5)cc4)c4c(N)ncnc43)CC2)CC1

>  <pIC50>
> 7.30

$$$$
>  <sampleSmiles>
CN1CCN([C@H]2CC[C@H](n3cc(-c4ccc(Oc5c(F)cccc5F)cc4)c4c(N)ncnc43)CC2)CC1

>  <pIC50>
> 7.30

$$$$

Consider the additional molecule presented here.
Briefly, pIC50 measured for "CC[C@H]1CN([C@H]2CC[C@H](n3cc(-c4ccc(Oc5ccccc5)cc4)c4c(N)ncnc43)CC2)CCN1" : 6.60 to 7.30

----------
target: N-terminally GST-tagged HCK (75-526) (Homo sapiens (Human), UniProt P08631); test: HCK Kinase Assay (ProFluor Src-Family Kinase Assay); assay type: biochemical; settings: HCK inhibitory activity, 50 μM ATP; read-out: HCK Activity
pIC50: −log10 of the molar value.
valueType: pIC50

>  <compound>
C[C@@H]1CN([C@H]2CC[C@@H](n3cc(-c4ccc(Oc5ccccc5)cc4F)c4c(N)ncnc43)CC2)CCN1 [Example 16]

>  <pIC50>
6.60 to 7.30

$$$$

pIC50 for C[C@H]1CC(N2CCC(n3cc(-c4ccc(NC(=O)Nc5cc(C(C)(C)C)on5)cc4)c4c(N)ncnc43)CC2)CCN1 (stereo partly shown) [Example 156] is > 7.30

// CN1CCN([C@H]2CC[C@@H](c3nc(-c4ccc(Oc5ccccc5)cc4F)c4c(N)ncnn43)CC2)CC1 [Example 164] : pIC50 value = 6.60 to 7.30

Entry under test: CN1CCN([C@H]2CC[C@H](n3cc(-c4ccc(Oc5ccccc5F)cc4)c4c(N)ncnc43)CC2)CC1 [Example 108] . Its pIC50 was > 7.30

Looking up C[N+]1(C)CCN([C@H]2CC[C@H](n3nc(-c4ccc(Oc5ccccc5)cc4F)c4c(N)ncnc43)CC2)CC1 [Example 7] , I found its pIC50 recorded as > 7.30

compound Nc1ncnc2c1c(-c1ccc(Oc3ccccc3)cc1)cn2C1CCC2(CC1)NC(=O)N(c1ccncc1)C2=O (stereo not shown) [Example 93] , pIC50 observed: 6.60 to 7.30

Looking up C[C@H]1CN([C@H]2CC[C@H](c3cc(-c4ccc(Oc5ccccc5)cc4)c4c(N)ncnn43)CC2)CCN1 [Example 169] , I found its pIC50 recorded as > 7.30
